- testedOn: UniProt P34972
- measurementDescription: Radioligand binding assay, CB2 ([3H]-CP 55,940 competition)
- conditionSet: plasma membranes of HEK 293 EBNA cells transfected with human CB2; 0.72 nM [3H]-CP 55,940; NA = not active
- Description: A. Radioligand Binding Assay Plasma membranes prepared from HEK 293 EBNA cells transfected with human CB1 or CB2 cannabinoid receptors ([…] protein, receptor concentration; PerkinElmer) were used for the radioligand binding studies. […] Non-specific binding was determined using 10 uM of unlabeled CP 55,940. […] Binding was determined in duplicate for at least 4 separate experiments.
metricName: IC50 (nM)
Numeric only. Scale: nM

Solved entries (count: 3):
*Q* Dear colleague, I am looking for the recorded IC50 of the following compound: CC1(C)CC(n2ncc(NCCN3CCOCC3)c(Cl)c2=O)CC(C)(C)C1
*A* 83

*Q* For the compound shown here, CN(C)CCNc1cnn(C2CC(C)(C)CC(C)(C)C2)c(=O)c1Br , give the reported IC50.
*A* 42

*Q* Recorded IC50 for CC1(C)CC(n2ncc3c(cnn3CCN3CCOCC3)c2=O)CC(C)(C)C1 , please?
*A* 8.5

Field: next compound
*Q* Please give the measured IC50 for this compound: CC1(C)CC(n2ncc3nn(CCN4CCOCC4)cc3c2=O)CC(C)(C)C1
*A* 1510

----------
- testedOn: human CB2 cannabinoid receptor (Homo sapiens (Human))
- measurementDescription: Radioligand binding assay, CB2 ([3H]-CP 55,940 competition)
- conditionSet: plasma membranes of HEK 293 EBNA cells transfected with human CB2; 0.72 nM [3H]-CP 55,940; NA = not active
metricName: pIC50
Scale for pIC50: -log10 of concentration given in mol/L; no unit attached.

Sample answers from the record:
*Q* For the molecule CN(C)c1cnn(C2CC(C)(C)CC(C)(C)C2)c(=O)c1Cl , what pIC50 is on record?
*A* 7.77

*Q* Any idea what its pIC50 is? The molecule is CCCNc1cnn(C2CC(C)(C)CC(C)(C)C2)c(=O)c1Cl
*A* 8.27

***
*Q* Need pIC50, item CN(C)CCN(C)c1cnn(C2CC(C)(C)CC(C)(C)C2)c(=O)c1Cl
*A* 7.70

----------
- testedOn: human CB2 cannabinoid receptor (Homo sapiens (Human))
- measurementDescription: Radioligand binding assay, CB2 ([3H]-CP 55,940 competition)
- conditionSet: plasma membranes of HEK 293 EBNA cells transfected with human CB2; 0.72 nM [3H]-CP 55,940; NA = not active
metricName: pIC50
API: returns pIC50 as number; meaning -log10 of concentration in mol/L.

*Q* Report pIC50 for CCCn1ncc2c(=O)n(C3CC(C)(C)CC(C)(C)C3)ncc21 please.
*A* 7.77

*Q* Find the recorded pIC50 belonging to CCCNc1cnn(C2CC(C)(C)CC(C)(C)C2)c(=O)c1Br and report it.
*A* 8.32

*Q* I am curious: what pIC50 value has been reported for CC1(C)CC(n2ncc(NCCN3CCOCC3)c(Br)c2=O)CC(C)(C)C1 ?
*A* 7.65

*Q* pIC50 lookup needed for CN(C)CCNc1cnn(C2CC(C)(C)CC(C)(C)C2)c(=O)c1Cl , thanks.
*A* 6.69

*Q* Quick one: pIC50 for CCN(CC)CCNc1cnn(C2CC(C)(C)CC(C)(C)C2)c(=O)c1Cl ?
*A* 5.89

Here is the next item to consider.
*Q* Consider the compound shown here: CCCNc1cnn(-c2cc(C)ccc2C)c(=O)c1Cl What is its recorded pIC50?
*A* 5.00

----------
Listing: EC50 of selected compounds
- Test system: mouse isolated vas deferens
- measurementDescription: Mouse isolated vas deferens (MVD) bioassay, electrically stimulated contractions
- Type: cell-based
- conditionSet: Mus musculus; vas deferens of male Swiss Webster mice, electrically evoked contractions; NA = not active; read-out: MVD Assay EC50
Form entry: value (µM) — number only.

*Q* Recorded EC50 for CN(C)CCNc1cnn(C2CC(C)(C)CC(C)(C)C2)c(=O)c1Cl with mouse isolated vas deferens, please?
*A* 2.9

Others:
*Q* Fill in the recorded EC50 for this compound, with mouse isolated vas deferens as test system: CCCNc1cnn(C2CC(C)(C)CC(C)(C)C2)c(=O)c1Cl
*A* 0.03

*Q* Provide value of EC50 for this record tested with mouse isolated vas deferens: CC1(C)CC(n2ncc(NCCN3CCOCC3)c(Cl)c2=O)CC(C)(C)C1
*A* 0.32

*Q* Param readout= EC50; system= mouse isolated vas deferens; entry= CN(C)CCNc1cnn(C2CC(C)(C)CC(C)(C)C2)c(=O)c1Br ; returns value.
*A* 0.82

----------
Reported log10 of IC50 values for the following molecules.
- testedOn: human CB2 cannabinoid receptor (Homo sapiens (Human), UniProt P34972)
- Sequence (P34972 whole entry): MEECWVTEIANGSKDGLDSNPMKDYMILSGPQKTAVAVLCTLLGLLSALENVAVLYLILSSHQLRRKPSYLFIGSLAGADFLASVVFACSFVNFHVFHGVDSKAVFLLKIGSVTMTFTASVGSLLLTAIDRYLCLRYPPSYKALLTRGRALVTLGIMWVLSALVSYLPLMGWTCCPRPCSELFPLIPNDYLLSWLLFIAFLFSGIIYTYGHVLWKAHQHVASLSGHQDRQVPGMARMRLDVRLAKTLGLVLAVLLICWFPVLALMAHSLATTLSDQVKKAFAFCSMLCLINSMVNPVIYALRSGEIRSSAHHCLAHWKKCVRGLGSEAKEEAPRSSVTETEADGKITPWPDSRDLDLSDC
- measurementDescription: Radioligand binding assay, CB2 ([3H]-CP 55,940 competition)
- conditionSet: plasma membranes of HEK 293 EBNA cells transfected with human CB2; 0.72 nM [3H]-CP 55,940; NA = not active
Plainly stated, the numbers are log10 of IC50 given in nM.

Examples from the recorded data:
*Q* Would you kindly share the measured log10 of IC50 for CCCNc1cnn(-c2cc(C)cc(C)c2)c(=O)c1Cl ?
*A* 4.00

*Q* Returns the measured log10 of IC50 for the input molecule. Input: CC1(C)CC(n2ncc(O)cc2=O)CC(C)(C)C1
*A* 3.26

*Q* Which log10 of IC50 value is on record for CCCNc1cnn(C2CC(C)(C)CC(C)(C)C2)c(=O)c1 ?
*A* 1.83

*Q* Fill blank: measured log10 of IC50 of the molecule CN(C)c1cnn(C2CC(C)(C)CC(C)(C)C2)c(=O)c1 is ____.
*A* 2.58

*Q* // lookup log10 of IC50 for CN(C)CCn1cc2c(=O)n(C3CC(C)(C)CC(C)(C)C3)ncc2n1
*A* 3.31

*Q* I'd like to know its log10 of IC50. The molecule in question is CNc1cnn(C2CC(C)(C)CC(C)(C)C2)c(=O)c1Cl
*A* 2.55

Continuing:
*Q* Fill in: log10 of IC50 of CC1(C)CC(n2ncc(Cl)c(Cl)c2=O)CC(C)(C)C1 is ___
*A* 2.59

*Q* Give the measured log10 of IC50 of CN(C)CCn1ncc2c(=O)n(C3CC(C)(C)CC(C)(C)C3)ncc21 .
*A* 2.02

----------
Attribute: CB2 Selectivity
- testedOn: human CB2 cannabinoid receptor (Homo sapiens (Human), UniProt P34972)
- measurementDescription: Radioligand binding assay, CB2 ([3H]-CP 55,940 competition)
- conditionSet: CB2 versus CB1 binding (ratio of CB1 IC50 to CB2 IC50)

Field: example entries. Status: answers known.
*Q* Name the recorded CB2 Selectivity for CCCn1cc2c(=O)n(C3CC(C)(C)CC(C)(C)C3)ncc2n1 .
*A* >42

*Q* Recorded CB2 Selectivity of CC1(C)CC(n2ncc(Cl)c(Cl)c2=O)CC(C)(C)C1 , please.
*A* >26

*Q* Quick check: CB2 Selectivity of CN(C)c1cnn(C2CC(C)(C)CC(C)(C)C2)c(=O)c1 ?
*A* >26

Others:
*Q* CB2 Selectivity for CNc1cnn(C2CC(C)(C)CC(C)(C)C2)c(=O)c1Cl ?
*A* >28

----------
Below: a set of entries, each annotated with reported EC50.
- Tested on: mouse isolated vas deferens
- measurementDescription: Mouse isolated vas deferens (MVD) bioassay, electrically stimulated contractions
- Assay type: cell-based
- conditionSet: Mus musculus; vas deferens of male Swiss Webster mice, electrically evoked contractions; NA = not active; read-out: MVD Assay EC50

*Q* Please look up its EC50: Cc1cc(C)cc(-n2ncc(NCCN3CCOCC3)c(Cl)c2=O)c1 [Compound 18]
*A* ~10 µM

*Q* Look up EC50 for this compound: CCN(CC)CCNc1cnn(C2CC(C)(C)CC(C)(C)C2)c(=O)c1Cl [Compound 32]
*A* 10 µM

*Q* Fill in: EC50 of CNc1cnn(C2CC(C)(C)CC(C)(C)C2)c(=O)c1 [Compound 6] is ___
*A* 10 µM

*Q* Query: EC50; subject: CN(C)CCn1ncc2c(=O)n(C3CC(C)(C)CC(C)(C)C3)ncc21 [Compound 38]
*A* 0.13 µM

*Q* What measured EC50 goes with CCCNc1cnn(-c2ccccc2)c(=O)c1Cl [Compound 9] ?
*A* > 10 µM

Others:
*Q* I would be grateful if you could share the reported EC50 for CC1(C)CC(n2ncc(NCCN3CCOCC3)c(Br)c2=O)CC(C)(C)C1 [Compound 15] .
*A* 0.086 µM

*Q* Given the compound CC1(C)CC(n2ncc(O)cc2=O)CC(C)(C)C1 [Compound 1] , what is its reported EC50?
*A* 3.7 µM

*Q* Quick check: EC50 of CC1(C)CC(n2ncc3c(cnn3CCN3CCOCC3)c2=O)CC(C)(C)C1 [Compound 36] ?
*A* 0.033 µM

*Q* Given CCCNc1cnn(-c2cc(C)cc(C)c2)c(=O)c1Cl [Compound 16] , state its recorded EC50.
*A* > 10 µM

*Q* Returns the measured EC50 for the input compound. Input: CC1(C)CC(n2ncc(Cl)c(Cl)c2=O)CC(C)(C)C1 [Compound 2]
*A* > 10 µM

*Q* What does the data say about its EC50? Entry: Cc1ccc(C)c(-n2ncc(NCCN3CCOCC3)c(Cl)c2=O)c1 [Compound 29]
*A* > 10 µM

*Q* Can you look up the measured EC50 of CN(C)CCN(C)c1cnn(C2CC(C)(C)CC(C)(C)C2)c(=O)c1Cl [Compound 31] for me?
*A* 0.33 µM

Hello, the source for this data is patent US9062004B2, in case you need it.
